Parameter: melting point. Scope: all listed entries.
Measurement type: melting point

compound=CC(C)(C)[Si](C)(C)OCCCC(=O)c1cc(-c2ccc(S(N)(=O)=O)cc2)n(C2CCCCC2)n1 value_reported="151 to 153 °C"
compound="CC#CCOc1ccc(S(=O)C(C(=O)NO)c2ccc(Cl)cc2)cc1 (stereo not given)" value_reported="92 °C"
compound=O=c1[nH]nc2c3cccc(Cl)c3[nH]c(=O)n12 value_reported="348 to 350 °C"
compound="COc1ccc(S(=O)(=O)C2(CCC/C=C/c3ccc(Cl)cc3)SC(=O)NC2=O)cc1 (stereo not given)" value_reported="182 to 184 °C"
compound="CN1CC[C@]2(c3ccccc3)CCCC[C@@]2(O)C1 (relative stereo)" value_reported="84 to 87 °C"
compound=COc1cc(C(=O)O)ccc1Cc1cn(C(C)C)c2ccc(CCCC(=O)N(C)C)cc12 value_reported="168 to 170 °C"
compound="CC1(C)CC(n2cncc2C(=O)OC2CCCCC2)c2ccccc2O1 (stereo not given)" value_reported="128 °C"
compound=N#CCc1ccc(-c2onc3ccccc23)cc1 value_reported="118 to 121 °C"
compound="COC(=O)C(CCN(C(C)C)C(C)C)(CC(=O)N1CCCCC1)c1ccccc1Cl (stereo not given)" value_reported="104 to 106 °C"
compound=CCn1cc(C(=O)O)c(=O)c2cc(F)c(-n3cccc3)nc21 value_reported="257 to 259 °C"

# credit: a melting point compilation (Tetko et al.; mined from patent text by program, amines drawn as free bases though some values may be those of a salt)
